Experiment: Inhibition of full-length wild-type HCV NS3 protease
Set-up: species or system Hepacivirus hominis
measure.name: Ki (µM)

CC(C)(C)NC(=O)Nc1nc(Cl)c(Cc2ccccc2-c2cccnc2)n(CC(=O)Nc2ccccc2C(=O)NS(=O)(=O)c2ccc(C(F)(F)F)cc2)c1=O: 1.1

[a] CC(C)(C)NC(=O)Nc1nc(Cl)c(CCc2ccccc2)n(CC(=O)Nc2ccccc2C(=O)NS(=O)(=O)c2ccc(C(F)(F)F)cc2)c1=O
[b] CC(C)(C)NC(=O)Nc1nc(Cl)c(Cc2ccccc2)n(CC(=O)Nc2ccccc2C(=O)NS(=O)(=O)c2ccc(C(F)(F)F)cc2)c1=O
Could you please tell me which of these two has the higher Ki: a or b ? Could you answer with the label of the item you picked?
b
